target: CRF1R; test: cell-based or functional assay; also: reference of the scale not given here
Ends that are not written are not given here.
Label rule, in plain words: CRF1R Emax % of 40% and up is YES, under 40% is NO.

Test whether the binder DNPSLSIDLPLILLRTLLELEKTQSQRERAEQNARIFDRV-NH2 [SEQ ID NO 337] records CRF1R Emax % of 40% or higher.
NO

Can you handle ZGPPISIDLPLHLLRKMIEIEKQEKEKQQAANNALLLATI (C-terminal amide) [SEQ ID NO 241] next?
YES

Can you handle NDDPPISIDLPFLLLRNMIEMARIENEREQAGLNAKYLAEV-NH2 [SEQ ID NO 260] next?
YES

Can you handle ZGPPISIDLPYWLLRKVIEIEKQEKEKQQAANNALLLDTI (C-terminal amide) [SEQ ID NO 311] next?
NO
